System tested: T1, MAGI2-2, second PDZ domain of MAGI2 (human, UniProt Q86UL8 426-510)
T1 construct: not shown: His6, N-terminal, kept; MBP, N-terminal, kept
T1 sequence (Q86UL8 426-510): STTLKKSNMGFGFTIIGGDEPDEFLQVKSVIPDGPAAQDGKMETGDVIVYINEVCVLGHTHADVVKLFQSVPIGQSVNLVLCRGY
Protocol text: fluorescence polarisation; direct: N-terminally fluorescein-labelled PBM peptide (tracer) with increasing amounts of MBP-PDZ; 384-well plates; triplicate; direct binding model (ProFit)
Test settings: both partners purified
Where no end group is shown, it is not given here.
Observed property: Kd (µM)
Answer in µM, number only, no unit symbol.

*Q* Query (binder): fluorescein-RTRRETQL (source: synthetic peptide) [f16E6, fluorescein-labelled HPV16 E6 PBM peptide] ; field requested: Kd
*A* 2.77
